# Test system: RARa:RXR (NR concentration 270 nM, RXRa partner concentration 90 nM)
# assay.method.text: PBM binding z-score (relative to random genomic background probes); higher = stronger binding; sequences stand for … in GC…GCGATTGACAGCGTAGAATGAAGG
experimental.endpoint: PBM binding z-score
The answer should be a number; do not append a unit.

CGTCAAAGTTCAACTAAGGCAACGTAAAGCACGC	3.62
TCTCGGAGGACCCGAAAGGTCAGAGCTCGACATC	4.13
CCGACTGGGACAAGGTTACCATAACGCACAGCCA	0.82
GCCTATAGGTAATACAAGGTGAAAGTCCGATTGT	0.994
ATCGAAAGGTCGTGGTGAGTATAGAGAAAGGGAA	3.84
CGTTAAAGTTCAAGGTAACGTAACAGAAAGCAGC	2.94

Input: What does the data say about its PBM binding z-score? Entry: "TCTATTAGTTGGAGGGCAACCGACGAGTCCGTTT"
Output: 0.737

Input: What do you get for "CCTAGCAGGCCGGGGTCACTCAAGCATTTCGCTT" ?
Output: 5.98

Input: What do you get for "GTACCGAGGTGAATAGGTCGTTGATGAGTAGGCG" ?
Output: 2.02

Input: What do you get for "CGAACTAGGTGAAGGACAGTGAATCTCCGCACGC" ?
Output: -0.0643

###

# Tested on: RARa:RXR (NR concentration 270 nM, RXRa partner concentration 90 nM)
# assay.method.text: PBM binding z-score (relative to random genomic background probes); higher = stronger binding; sequences stand for … in GC…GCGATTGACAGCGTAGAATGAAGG
experimental.endpoint: PBM binding z-score
The answer should be a number; do not append a unit.

Here is how some sequences turned out for PBM binding z-score.
TAGCCTAGGTCATGGGACAGTATACCACGCGAAC	2.89
TGAATGAGGATATAAGATCAGGGAACGTTGCAAA	0.0893
ACTTCCGGGTCAACGAGGTTATAGCACGCGTATA	4.87
CCTATTAGTGGACCATAAGGGCAACCGAAGCTCG	0.424
ACTATTAGTTGACCTAGGGCAACCGATACGACGC	2.79
TCATATAGGTAATACATGTGAAAGTCGGCATCTA	1.03
CCTGCTAGGTCATGGTAAGCTAATCTACAGTATG	2.32
GGAACGAGGGCATTCGAGTTTATAGCATGGCGAT	1.14

Now for a further sequence.
Input: What does the data say about its PBM binding z-score? Entry: "CCGACTGGGGCAGAAATGTTACCATACCATCCGG"
Output: -0.499

###

# System: PPARg:RXRa 30nM:10nM, anti-RXR (NR concentration 30 nM, RXRa partner concentration 10 nM)
# assay.method.text: PBM binding z-score (relative to random genomic background probes); higher = stronger binding; sequences stand for … in GC…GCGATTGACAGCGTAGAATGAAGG
experimental.endpoint: PBM binding z-score
The answer should be a number; do not append a unit.

TCATATAGGTAATACAGGTGAAAGTAGGCATCTA	3.8
TTACCAACGTGAAGGTCGTTGATCCCTCTGTAGA	0.511
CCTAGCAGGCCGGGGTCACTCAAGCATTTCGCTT	0.906
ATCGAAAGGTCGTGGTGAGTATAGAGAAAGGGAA	1.54
TTACCAAGGTGAAAGGTCGTTAATGCACGCCTTG	6.74

Input: What does the data say about its PBM binding z-score? Entry: "TAACCTAGGTCATTCAGGGGCCAGTATAGAAAGC"
Output: 1.61

Input: What do you get for "ACTTACGGGTCAACCAGGTTATAGCACGCGTATA" ?
Output: 3.07

Input: What do you get for "ATATGTCGGTTATCGGGTCATTCAGTTTGCGCAT" ?
Output: 0.785

Input: What do you get for "CGAACTAGGTCAAGTACAGTGAATCTCCGCACGC" ?
Output: 4.41

Input: What do you get for "AGAATGACGTTATTAAGATCAGGGAATTGCGGTC" ?
Output: -0.0762

Input: What do you get for "TCACCAAGGTGAAGGTCGTTGATCCCTCTGTAGA" ?
Output: 2.84

Input: What do you get for "CACACAGGGTCAGCTAGGCCAGAGTAGGGACGGC" ?
Output: 0.502

Input: What do you get for "CCTACTCGGCCACGAAAGGTCATTGATTCAGTGA" ?
Output: 1.33

Input: What do you get for "GATACAGGGTCAGCTAGAGGCCAGGGTATGGAAA" ?
Output: 0.426
